system: SMN2 CJ mRNA; assay: Gene panel canonical junction qPCR assay, SMN2; assay type: cell-based; conditions: decrease in CJ mRNA levels, gene panel; read-out: SMN2 IC50
pIC50: −log10 of the molar value.
Below, each entry is listed alongside its reported pIC50.
measured.property: pIC50

INSERT INTO assay_data (molecule, val) VALUES
  ('Cc1cn2cc(-c3ccc4c(=O)n(C5CCNC(C)(C)C5)cnc4c3)cc(F)c2n1 (centres unmarked)', '> 7.00'),
  ('CCN1CCC(n2ncc3cc(-c4cc(C)c5nc(C)cn5n4)ccc3c2=O)CC1', '> 7.00'),
  ('Cc1cn2nc(-c3ccc4c(c3)CCN(C3CCNCC3)C4=O)nc2c(C)n1', '6.00 to 7.00'),
  ('Cc1cn2cc(-c3ccc4c(c3)CCN(C3CCNCC3)C4=O)ncc2n1', '6.00 to 7.00'),
  ('Cc1cc(-c2ccc3c(=O)n(C4CCN(C)CC4)cnc3c2)cc2cn(C)nc12', '6.00 to 7.00'),
  ('CN1CCN(c2ccc3c(=O)n(-c4ccc5nn(C)cc5c4)cnc3c2)CC1', '< 5.00'),
  ('Cc1cn2cc(-c3ccc4c(=O)n(C5CCN(C)CC5)cnc4c3F)cc(F)c2n1', '6.00 to 7.00'),
  ('Cc1cn2nc(-c3ccc4c(c3)CCN(C3CCNC(C)(C)C3)C4=O)cc(C)c2n1 (centres unmarked)', '> 7.00'),
  ('CN1CCC(n2cnc3cc(-c4cc(F)c5nn(C)cc5c4)ccc3c2=O)CC1', '> 7.00'),
  ('Cc1cn2cc(-c3ccc4c(=O)n(C5CCNCC5)cnc4c3)nc2c(C)n1', '6.00 to 7.00'),
  ('Cc1cn2nc(-c3ccc4c(=O)n([C@@H]5CCN(C)[C@H](C)C5)ncc4c3)cc(C)c2n1', '> 7.00'),
  ('Cn1cc2ccc(-n3cnc4cc(NC5CCNCC5)ccc4c3=O)cc2n1', '< 5.00'),
  ('Cc1cn2nc(-c3ccc4c(=O)n(C5CCN(C)CC5)ncc4c3)cc(C)c2n1', '> 7.00'),
  ('Cc1cn2nc(-c3ccc4c(=O)n(C5CCN(C)CC5)cnc4c3)cc2c(C)n1', '6.00 to 7.00'),
  ('Cc1cc(-c2ccc3nc(N4CCN(C)CC4)[nH]c(=O)c3c2)cc2cn(C)nc12', '6.00 to 7.00'),
  ('Cc1cn2cc(-c3cc(F)c4c(=O)n(C5CCN(C)CC5)cnc4c3)cc(F)c2n1', '> 7.00'),
  ('Cc1cc(-c2cc(F)c3c(=O)n(C4CCN(C)CC4)cnc3c2)cc2cn(C)nc12', '> 7.00');

----------
System: HTT mRNA
Test: Splicing assay (RT-qPCR) monitoring HTT canonical junction (CJ) and alternative junction (AJ) mRNA isoforms
Type: cell-based
Details: decrease in CJ mRNA (50% response); A673 or K562 cells, 24 h treatment, top dose 10 uM; read-out: HTT CJ AC50
Method: Compounds described herein were used to modulate RNA transcript abundance in cells. The expression of a target mRNA was measured by detecting the formation of an exon-exon junction in the canonical transcript (CJ). A compound mediated exon-inclusion event was detected by observing an increase in formation of a new junction with an alternative exon (AJ). […] After treatment, the levels of the HTT mRNA targets were determined from each sample of cell lysate by cDNA synthesis followed by qPCR. […]
Where a name gives a salt, the structure may show the parent alone.
measured.property: AC50

INSERT INTO results (compound, val) VALUES
  ('Cc1cc(-c2ccc3c(c2)CCN(C2CCNCC2)C3=O)cc2cn(C)nc12', '1000 to 10000 nM'),
  ('Cc1cn2nc(-c3ccc4c(=O)n([C@H]5CCN(C)[C@H](C)C5)ncc4c3)cc(C)c2n1', '< 100 nM'),
  ('Cc1cn2nc(-c3ccc4c(=O)n(C5CCNC(C)(C)C5)ncc4c3)cc(C)c2n1 (centres unmarked)', '100 to 1000 nM'),
  ('Cn1cc2cc(-c3ccc4c(c3)CCN(C3CCNCC3)C4=O)cc(F)c2n1', '> 10000 nM'),
  ('Cc1cn2nc(-c3cc(F)c4c(=O)n(C5CCNCC5)cnc4c3)cc(C)c2n1', '< 100 nM'),
  ('Cc1cn2cc(-c3ccc4c(=O)n(C5CCNC(C)(C)C5)cnc4c3)cc(F)c2n1 (centres unmarked)', '100 to 1000 nM'),
  ('Cn1cc2cc(-n3cnc4cc(NC5CCNCC5)ccc4c3=O)ccc2n1', '> 10000 nM'),
  ('Cc1cn2cc(-c3ccc4c(=O)n(C5CCNCC5)ncc4c3)ncc2n1', '1000 to 10000 nM'),
  ('CN(c1ccc2c(=O)n(-c3ccc4nn(C)cc4c3)cnc2c1)C1CCNCC1 [Compound 180, hydrochloride]', '> 10000 nM'),
  ('Cc1cn2nc(-c3ccc4c(=O)n(C5CCN(C)C5)ncc4c3)cc(C)c2n1 (centres unmarked)', '1000 to 10000 nM'),
  ('Cc1cc(-c2ccc3c(=O)n(C4CCN(C)CC4)cnc3n2)cc2cn(C)nc12', '> 10000 nM'),
  ('Cc1cc(-c2ccc3c(=O)n(C4CCN(C)CC4)cnc3c2)cc2cn(C)nc12', '1000 to 10000 nM'),
  ('Cc1cn2nc(-c3ccc4c(c3F)CCN(C3CCNCC3)C4=O)cc(C)c2n1', '1000 to 10000 nM'),
  ('Cc1cn2cc(-c3ccc4c(c3)CCN(C3CCNCC3)C4=O)ncc2n1', '> 10000 nM'),
  ('Cc1cc(-c2cc(F)c3c(=O)n(C4CCNCC4)cnc3c2)cc2cn(C)nc12', '< 100 nM'),
  ('Cc1cc(-c2ccc3c(=O)n(C4CC(C)(C)NC(C)(C)C4)cnc3c2)cc2cn(C)nc12 [Compound 157, hydrochloride]', '> 10000 nM'),
  ('Cn1cc2cc(-c3ccc4c(=O)n(C5CCNCC5)ncc4c3)cc(F)c2n1', '1000 to 10000 nM');
